Values from PubChem BioAssay (NCATS)

# PROTOCOL_DESCRIPTION: Primary qHTS for inhibitors of nuclear receptor binding SET domain protein 2 (NSD2) in an RCH-ACV wild type WT cells (2C) (AID 1645877); further: nearly all actives have a fitted effect of over 70% in size
# ASSAY_CONDITIONS: RCH-ACV (leukaemia line) NSD2 WT (2C) viability, CellTiter-Glo, 72 h; series mostly up to 44.9 µM
Records with an inconclusive call do not appear. Active and inactive are the calls of the source. The call rests on the fitted dose curve; in most records, active means well fitted inhibition curve with a large enough effect; inconclusive means small, poorly fitted or top-dose-only effect; inactive means no such curve, though single readings can be large or run the other way.
One label from this list, please: 1 (yes) for active, 0 (no) for inactive

CC(=O)OC1C(c2ccccc2)CCC(c2ccccc2)C1OC(C)=O (configuration not stated)    0 (no)
COc1c2c(c(C)c3c1C(=O)OC3)OC1(C)CC(O)C(C(C)(C)O)C(C)(CCC(=O)O)C1C2 (configuration not stated)    0 (no)
C/C=C(/COC(=O)/C(C)=C/C)C(=O)OC(CC)c1ccc(OC)c(OC)c1 (configuration not stated)    0 (no)
O=C(O)c1ccccc1NCCc1ccccc1    0 (no)
COc1ccc(CN2C(=O)C(=O)c3cc(S(=O)(=O)N4CCC[C@H]4COc4cccnc4)ccc32)cc1    0 (no)
Cc1cc(-c2cc(O)ccc2Cl)cc2nnc(Nc3ccc(OCCN4CCCC4)cc3)nc12    1 (yes)

Prompt line: What did the test return for O=C(/C=C\c1ccc(O)cc1)N[C@@H](Cc1ccc(O)cc1)C(=O)O ?
Response line: 0 (no)

---

# Tested on: NIH3T3
# PROTOCOL_DESCRIPTION: Cytotoxic Profiling of Annotated Libraries Using Quantitative High-Throughput Screening (AID 1296008); further: on the % scale 0 is the no-effect control and ±100 the full control effect; nearly all actives have a fitted effect of over 60% in size
# ASSAY_CONDITIONS: Five cell lines viability, CellTiter-Glo ATP luminescence, 48-72 h; active compounds read low
Inconclusive results are not listed.
ATTRIBUTE_MEASURED: max response (%)
Use % as the unit, but write only the number.

COc1ccc(CNC(=O)c2sc3nc(C)cc(C)c3c2N)cc1    -5.95
C=C1C(=O)O[C@@H]2C[C@H](C)[C@@]3(O)C=C(C(C)=O)[C@]4(CC3C[C@H]12)C(=O)O[C@H]1C[C@@H](C)C(CCC(C)=O)=CC[C@H]14 (some centres not stated)    -0.126
NC(=O)c1cccc2cn(-c3ccc(C4CCCNC4)cc3)nc12 (configuration not stated)    -14

For this compound ( c1ccc(-c2ncc(CN3CCN(c4ncccn4)CC3)[nH]2)cc1 ), measured max response is -1.52

For this compound ( COC(=O)C[C@H]1C(C)(C)[C@H](OC(C)=O)C2CC3=C4CC(=O)O[C@@H](c5ccoc5)[C@]4(C)CCC3[C@@]1(C)C2=O (some centres not stated) ), measured max response is -4.77

For this compound ( CC1OC(OC2C(CO)OC(OCC3OC(OC(=O)C45CCC(C)(C)CC4C4=CCC6C7(C)CCC(OC8OC(CO)C(O)C(OC9OC(CO)C(O)C(O)C9O)C8O)C(C)(C)C7CCC6(C)C4(C)CC5)C(O)C(O)C3O)C(O)C2O)C(O)C(O)C1OC1OC(CO)C(O)C(O)C1O (configuration not stated) ), measured max response is -0.84

For this compound ( COc1ccc(C2COc3cc(O)ccc3C2)c(O)c1 (configuration not stated) ), measured max response is 4.68

For this compound ( O=C(O)c1cc(I)ccc1NC(=O)[C@H](Cc1ccccc1)NCc1ccccc1 ), measured max response is 1.92
